B1: EPB41L3 (parent)
chain: SMQCKVILLDGSEYTCDVEKRSRG

# Variants of: B1
# assay_method_text: protein stability index of a GFP-peptide fusion (GPS, HEK-293T) (PSI 1-6); higher = more stable;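 note: lentivirally expressed fusions sorted by FACS into six bins by GFP to DsRed ratio, PSI derived from sequencing read proportions per bin multiplied by bin number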
# test_parameters: c terminus: a fixed tail appended
The recorded protein stability index of each item maps onto one of these classes: band A = under 2, band B = from 2 up to 3, band C = 3 and over

Query: State the band of C16M
Response: band B

Query: Category of D10N , please.
Response: band A

Query: Into which bin does this variant go? M2L
Response: band B

Query: For the record L9C , report the class its protein stability index corresponds to.
Response: band B

Query: Note: place this variant into its band. Item: R23M
Response: band B

Query: Sort into band: S22E
Response: band C

Query: Would you mind sorting S22F into the appropriate category?
Response: band B

Query: Classify this variant: D17I
Response: band A

Query: Dear colleague, I would appreciate it if you could identify the bin for K20H and reply at your convenience.
Response: band B

Query: # bin lookup: classify M2F by its protein stability index
Response: band B

Query: Dear colleague, I would appreciate it if you could identify the bin for S12C and reply at your convenience.
Response: band B

Query: Form field 'band' for D10K
Response: band C

Query: Form field 'band' for R23L
Response: band B

Query: Just checking, what class would you give K5F here?
Response: band A

Query: Pick a category. Item: R21V
Response: band B

Query: Hey, which category is L9Q in, do you know?
Response: band C

Query: Given K5L , name the class its protein stability index places it in.
Response: band A

Query: Band of Q3C ?
Response: band B

Query: Which class does D17H fall in?
Response: band B

Query: Each variant maps to one class by protein stability index. Which class for Q3T ?
Response: band B

Query: Determine which band this variant sits in: C4M
Response: band B

Query: Entry R23P belongs to which category?
Response: band B

Query: Quick check: band for Y14K
Response: band C

Query: GET /class?item= S1H
Response: band B

Query: Lab note: sort S22M into the matching protein stability index band.
Response: band B

Query: Which class is correct for the following variant? R23F
Response: band B

Query: Each variant maps to one class by protein stability index. Which class for E13C ?
Response: band A

Query: Assign a bin to G11L
Response: band B

Query: Which protein stability index band matches C4I ?
Response: band B

Query: Sort E19V into one of the categories.
Response: band B

Query: Hey, which category is M2S in, do you know?
Response: band C

Query: In plain terms, what class is D10H ?
Response: band A

Query: Determine which band this variant sits in: Y14V
Response: band C

Query: Exam item: assign S12H to the correct category.
Response: band B

Query: Exam item: assign D17T to the correct category.
Response: band B

Query: # bin label for L9G
Response: band C

Query: Class (by measured protein stability index) for V18A
Response: band C

Query: Hey, which category is L9N in, do you know?
Response: band C

Query: Which bin, given its protein stability index, does K20I occupy?
Response: band A

Query: Could you place D10Q in its proper category? Many thanks.
Response: band B

Query: Would you mind sorting T15E into the appropriate category?
Response: band B

Query: Class label required: C16F
Response: band B

Query: Note: place this variant into its band. Item: I7N
Response: band C

Query: Lab note: which band did M2D land in?
Response: band C

Query: Classify this variant: L8F
Response: band C

Query: Could you place V18Y in its proper category? Many thanks.
Response: band B

Query: Band assignment needed for S22N please.
Response: band C

Query: Which protein stability index band matches V18F ?
Response: band B

Query: # bin label for G11P
Response: band C

Query: Which bin should I file Y14W under?
Response: band A

Query: Class (by measured protein stability index) for M2Y
Response: band A

Query: GET /class?item= S1T
Response: band A

Query: Classify this variant: T15D
Response: band C

Query: Band for D10V ?
Response: band A

Query: Tag the class for C4R
Response: band C

Query: Band assignment needed for G24S please.
Response: band C

Query: Where would V18E land among the classes by reported protein stability index?
Response: band C

Query: The entry to classify is E19P ; which class holds it?
Response: band B

Query: Which class holds V6H ?
Response: band B

Query: Which of the defined bands does the recorded protein stability index of S22V sit within?
Response: band B

Query: Kindly state the category for this variant: S1V
Response: band A

Query: Category of Q3I , please.
Response: band B

Query: Lab log: R21Q — assign protein stability index category
Response: band B

Query: Bin this entry: C4G
Response: band C

Query: Band for the recorded protein stability index of Q3P ?
Response: band C

Query: # classify by protein stability index band: G24V
Response: band B

Query: Could you place E19R in its proper category? Many thanks.
Response: band B

Query: GET /class?item= K5C
Response: band A

Query: Dear colleague, I would appreciate it if you could identify the bin for D17M and reply at your convenience.
Response: band A

Query: // return the class label for V18I
Response: band B

Query: State the class of the variant shown: L9K
Response: band C

Query: Assign a bin to L9F
Response: band B

Query: Given M2K , name the class its protein stability index places it in.
Response: band C

Query: Kindly identify the class of M2C .
Response: band B

Query: Which protein stability index category applies to S22I here?
Response: band B

Query: Entry V6D belongs to which category?
Response: band C

Query: Textbook exercise: identify the category of the variant given here, L8R , according to its measured value.
Response: band B

Query: Would you mind sorting D10F into the appropriate category?
Response: band B

The origin of these recorded values is the supplement of paper PMC10567573.
